Readings of TGI for the listed compounds
system: HS 578T breast; assay: NCI tumour cell line growth inhibition, 48 h
The reply should be a number in µM, with the unit left off.

// worked examples, TGI included
sample_smiles	unit_tag	TGI
COc1cc2c3c(n(CCCNCCN)c(=O)c2cc1OC)-c1cc2c(cc1C3=O)OCO2	µM	4.76
C=C1C(=O)O[C@H]2[C@H]1CC/C(COC(=O)NCc1ccc(Cn3c(=O)sn(CCCCl)c3=O)cc1)=C\CC[C@@]1(C)O[C@@H]21	µM	49
O=C(c1ccc2ncc(-c3nc(NC4CC4)ncc3F)n2c1)N1CCOCC1	µM	8.04

--- query ---
Which TGI reading was recorded for the compound `COC(=O)c1c2c(c(C)[n+]([O-])c1C)C(=O)C=C(NCc1ccc(F)c(F)c1)C2=O` ?
6.17

---

Readings of GI50 for the listed compounds
test system: UACC-257 melanoma

sample_smiles	property_name	observed
O=C(Nc1ccc(F)cc1)c1c(NC(=O)C(F)(F)F)sc2c1CCCCC2	GI50	2210 nM
CC(C)c1ccc(C(=O)Nc2sc3c(c2C#N)CCC(=O)C3)cc1	GI50	1730 nM
COc1ccccc1NC(=O)n1nc(N)c2ccccc21	GI50	> 100000 nM

--- query ---
Which GI50 reading was recorded for the compound `O=C(c1ccc2ncc(-c3nc(NC4CC4)ncc3F)n2c1)N1CCOCC1` ?
2710 nM

---

Readings of TGI for the listed molecules
system: MDA-MB-435; assay: NCI tumour cell line growth inhibition, 48 h
The reply should be a number in µM, with the unit left off.

// worked examples, TGI included
sample_smiles	TGI / µM
CN(C)CCCN1c2nc3ccccc3cc2Sc2cc3ccccc3nc21	2.96
CCOC(=O)c1[nH]c(-c2ccc(Cl)cc2)cc1-c1cccnc1	1.42

Which TGI reading was recorded for the molecule `FC(F)(F)c1ccccc1N1CCN(c2nc(-c3cccs3)nc3ccc(Br)cc23)CC1` ?
63.3

---

Readings of TGI for the listed compounds
system: OVCAR-3 ovarian; test: NCI tumour cell line growth inhibition, 48 h
The reply should be a number in µM, with the unit left off.

sample_smiles	TGI, µM
COc1cc(/C=C\[N+](=O)[O-])ccc1OCc1ccccc1	3.71

--- query ---
Which TGI reading was recorded for the compound `O=C(Nc1ccc(F)cc1)c1c(NC(=O)C(F)(F)F)sc2c1CCCCC2` ?
16.3

---

test system: NCI/ADR-RES ovarian
Hello, when you answer, please use one of the following outcomes: yes for active, no for inactive

Examples with answers:
compound	tgt	assigned_label
OCC1OC(n2ccc3c(NO)ncnc32)C(O)C1O (stereo not given)	NCI/ADR-RES ovarian	yes
CC/C=C\C[C@H](O)C/C=C1/C(=O)C=C[C@@H]1C/C=C\CCCC(=O)N(C)C	NCI/ADR-RES ovarian	no
N#Cc1cnc2cc(OC[C@@H](O)CO)c(NC(=O)CC3CSSC3)cc2c1Nc1ccc(OCc2cccc(F)c2)c(Cl)c1	NCI/ADR-RES ovarian	no
CC(C)=CC(=O)O[C@H]1C(=O)O[C@@H]2C[C@H]3[C@H](C)C(=O)C(O[C@@H]4O[C@H](CO)[C@@H](O)[C@H](O)[C@H]4O)=C[C@]3(C)[C@H]3[C@@H](O)[C@H](O)[C@]4(C(=O)O)OC[C@]32[C@@H]14	NCI/ADR-RES ovarian	no

I would be grateful if you could indicate the recorded call for `O=c1nc(Nc2cccc(Cl)c2)oc2cc(Cl)oc(=O)c12` .
no

I would be grateful if you could indicate the recorded call for `O=C(Nc1ccc(F)cc1)c1c(NC(=O)C(F)(F)F)sc2c1CCCCC2` .
no

I would be grateful if you could indicate the recorded call for `CCOC(=O)C(=Cc1ccccc1[N+](=O)[O-])C(=O)OCC` .
no

I would be grateful if you could indicate the recorded call for `COc1ccc2c(Nc3ccc(NS(C)(=O)=O)cc3)c3ccccc3nc2c1` .
no

I would be grateful if you could indicate the recorded call for `NC1CCN(c2nc(Nc3cccc(C(F)(F)F)c3)c3c(=O)[nH]ccc3n2)CC1` .
no

I would be grateful if you could indicate the recorded call for `CCCCCCCCCCN(CCCCCCCCCC)CC(=O)c1ccc2cc(Br)c3ccccc3c2c1` .
no

---

system: OVCAR-5 ovarian; assay: NCI tumour cell line growth inhibition, 48 h
property_name: TGI

// worked examples, TGI included
molecule	TGI
O=C(NCCCNc1cc(-c2cn(-c3ccccc3)nc2-c2cccc(O)c2)ccn1)c1ccccc1	75 µM
CN(CN1C(=O)C2Cc3ccccc3CN2C1=O)c1ccccn1 (stereo not given)	> 100 µM
O=C1NC(N/N=C\C(O)C(O)C(O)CO)=N/C1=C/c1ccc(Cl)cc1 (stereo not given)	> 100 µM

Which TGI reading was recorded for the molecule `C/C(=N/NC(=S)Nc1ccccc1Cl)c1cccc(/C(C)=N\NC(=S)Nc2ccccc2Cl)n1` ?
> 100 µM

Which TGI reading was recorded for the molecule `NC(=O)N/N=C/C(/C=N/NC(N)=O)[N+](=O)[O-]` ?
> 100 µM

---

system: IGROV1 ovarian; assay: NCI tumour cell line growth inhibition, 48 h
Readings of TGI for the listed compounds

// worked examples, TGI included
compound	tgt	property_name	observed
CN(C(=O)Cc1ccc(Cl)c(Cl)c1)[C@H]1CCCC[C@@H]1[N+]1(C)CCCC1	IGROV1 ovarian	TGI	> 100 µM
CCOC(=O)Oc1cc2c(c(OC)c1OC)-c1ccc(SC)c(=O)cc1C(NC(=O)C(F)(F)F)CC2 (stereo not drawn)	IGROV1 ovarian	TGI	0.149 µM
CN(C)c1ccc(/C=C2\N=C(NN)NC2=O)cc1	IGROV1 ovarian	TGI	> 100 µM
Cc1sc(C)c(Cc2c(C)sc(C)c2CCl)c1CCl	IGROV1 ovarian	TGI	> 100 µM
CCCCCCCCCCCCCCCCCCNc1ccn(C2OC(COP(=O)(O)OCC3CCC(n4cnc5c(=O)[nH]cnc54)O3)C(O)C2O)c(=O)n1 (stereo not drawn)	IGROV1 ovarian	TGI	> 100 µM

Short answer please: TGI, IGROV1 ovarian, entry O=C1CC(=O)c2c(O)cc(O)c(c2O)-c2c(ccc(O)c2O)C2=CC(=O)c3c(O)cc(O)c(c3O2)-c2c1ccc(O)c2O (tested in a mixture with another compound)
> 50 µM

Short answer please: TGI, IGROV1 ovarian, entry `C/C(=N\NS(=O)(=O)c1ccccc1)c1ccccc1`
> 100 µM

Short answer please: TGI, IGROV1 ovarian, entry `Cc1c(C(=O)N2CCN(c3ccc([N+](=O)[O-])cc3)CC2)[n+](=O)c2cc(Cl)c(Cl)cc2n1[O-]`
42.7 µM

---

Readings of TGI for the listed molecules
test system: SF-268 CNS; assay: NCI tumour cell line growth inhibition, 48 h

molecule	tgt	TGI
CC(=O)OC1CC2C(C)(C)C(=O)C=C[C@]2(C)C2CCC3(C)C(c4ccoc4)C(=O)[C@H]4O[C@]43[C@]12C (stereo not given in full)	SF-268 CNS	> 100 µM
C(=N\OCc1ccccc1)/c1ncccc1C1OCCO1	SF-268 CNS	> 100 µM
Cc1cc(CNC(=O)OCc2ccccc2)c(C)c2c1Oc1ccccc1O2	SF-268 CNS	> 74.3 µM
O=C(O)CCCCCOc1cccnc1/C=N/NC1=NCCN1	SF-268 CNS	> 100 µM

--- query ---
Which TGI reading was recorded for the molecule `CN(C)c1nc(NC23CC4CC(CC(C4)C2)C3)nc(N(C)C)n1` ?
> 100 µM

---

system: HCC-2998 colon; test: NCI tumour cell line growth inhibition, 48 h
Readings of TGI for the listed compounds
The reply should be a number in µM, with the unit left off.

sample_smiles	TGI [µM]
FC(F)(F)c1ccccc1N1CCN(c2nc(-c3cccs3)nc3ccc(Br)cc23)CC1	25
C=C1C(=O)O[C@H]2[C@H]1CC/C(COC(=O)NCc1ccc(Cn3c(=O)sn(CCCCl)c3=O)cc1)=C\CC[C@@]1(C)O[C@@H]21	21.4
Clc1nc(Cl)c(Cl)c(Cl)n1	35.5
Cc1nc2ccc(Nc3nc(NCCN4CCOCC4)nc(Nc4ccc(F)cc4)n3)cc2n1Cc1ccccc1	6.23

--- query ---
Short answer please: TGI, HCC-2998 colon, entry `Cn1c(=O)nc2n(-c3cccc(F)c3)c3ccccc3nc-2c1=O`
39.6

---

tested on: U251 CNS; assay: NCI tumour cell line growth inhibition, 48 h
property_name: TGI (µM)
The reply should be a number in µM, with the unit left off.

Which TGI reading was recorded for the compound `COc1ccc2[nH]c(Cl)c(/C=C3/C(=O)Nc4cc(C)c(OC)cc43)c2c1` ?
18

Which TGI reading was recorded for the compound C=C1C(=O)OC2CC1C(O)C/C(C)=C/CC/C(C)=C/C(O)CC2C (stereo not given) ?
16.8

Which TGI reading was recorded for the compound `Clc1ccc2[nH]cc(-c3nc(-c4c[nH]c5ncccc45)cs3)c2c1` ?
13.2

Which TGI reading was recorded for the compound `COc1ccc(N2C(=Nc3ccccc3)SC(=N/S(=O)(=O)c3ccccc3)/C2=N\S(=O)(=O)c2ccccc2)cc1` ?
35.4

Which TGI reading was recorded for the compound `CCOC(=O)Nc1c(C#N)[n+]([O-])c2cc(Cl)c(Cl)cc2[n+]1[O-]` ?
32.6

Which TGI reading was recorded for the compound `O=C1C(NCCc2ccc(O)c(O)c2)=CC(=O)c2ncccc21` ?
12.8
